Give EC50 for every item shown.
System: CCRF-CEM
Experiment: Compound was evaluated for the inhibition of HIV replication using HIV-2 infected CEM-TK- cells.
Format: functional, cell-based
Conditions: Homo sapiens
Please state the figure in nM; there is no need to write the unit.

Enquiry: I am curious: what EC50 value has been reported for Cc1cn(C2C=CC(COP(=O)(NC(C)C(=O)OCc3ccccc3)Oc3ccccc3)O2)c(=O)[nH]c1=O (centres undefined) ?
Return: 60

Enquiry: I am curious: what EC50 value has been reported for COC(=O)C(C)NP(=O)(OC[C@@H]1C=C[C@H](n2cc(C)c(=O)[nH]c2=O)O1)Oc1ccccc1 (some centres undefined) ?
Return: 75

Enquiry: I am curious: what EC50 value has been reported for Cc1cn([C@H]2C=C[C@@H](CO)O2)c(=O)[nH]c1=O [STAVUDINE] ?
Return: 25000

----------
System: CCRF-CEM
Assay: Compound was evaluated for the cytotoxic concentration to inhibit HIV replication in CEM cells.
Assay type: functional
Details: Homo sapiens
test-readout: CC50

Enquiry: I am curious: what CC50 value has been reported for Cc1cn([C@H]2C[C@H](N=[N+]=[N-])[C@@H](CO)O2)c(=O)[nH]c1=O [ZIDOVUDINE] ?
Return: > 100 µM

Enquiry: I am curious: what CC50 value has been reported for COC(=O)C(C)NP(=O)(OC[C@@H]1C=C[C@H](n2cc(C)c(=O)[nH]c2=O)O1)Oc1ccccc1 (some centres undefined) ?
Return: > 100 µM

Enquiry: I am curious: what CC50 value has been reported for Cc1cn([C@H]2C=C[C@@H](CO)O2)c(=O)[nH]c1=O [STAVUDINE] ?
Return: > 100 µM

Enquiry: I am curious: what CC50 value has been reported for Cc1cn(C2C=CC(COP(=O)(NC(C)C(=O)OCc3ccccc3)Oc3ccccc3)O2)c(=O)[nH]c1=O (centres undefined) ?
Return: 52 µM

----------
Test system: CCRF-CEM
Assay: Compound was evaluated for the inhibition of HIV replication using HIV-2 infected CEM cells.
Type: functional, cell-based
Details: Homo sapiens
test-readout: EC50 (nM)
Please state the figure in nM; there is no need to write the unit.

Enquiry: I am curious: what EC50 value has been reported for Cc1cn(C2C=CC(COP(=O)(NC(C)C(=O)OCc3ccccc3)Oc3ccccc3)O2)c(=O)[nH]c1=O (centres undefined) ?
Return: 39

Enquiry: I am curious: what EC50 value has been reported for Cc1cn([C@H]2C[C@H](N=[N+]=[N-])[C@@H](CO)O2)c(=O)[nH]c1=O [ZIDOVUDINE] ?
Return: 8

Enquiry: I am curious: what EC50 value has been reported for Cc1cn([C@H]2C=C[C@@H](CO)O2)c(=O)[nH]c1=O [STAVUDINE] ?
Return: 270

Enquiry: I am curious: what EC50 value has been reported for COC(=O)C(C)NP(=O)(OC[C@@H]1C=C[C@H](n2cc(C)c(=O)[nH]c2=O)O1)Oc1ccccc1 (some centres undefined) ?
Return: 102
